Origin of the recorded values: patent CN105267200A

Biological target: UniProtKB P42345
Sequence (P42345 1362-2549 limits assumed): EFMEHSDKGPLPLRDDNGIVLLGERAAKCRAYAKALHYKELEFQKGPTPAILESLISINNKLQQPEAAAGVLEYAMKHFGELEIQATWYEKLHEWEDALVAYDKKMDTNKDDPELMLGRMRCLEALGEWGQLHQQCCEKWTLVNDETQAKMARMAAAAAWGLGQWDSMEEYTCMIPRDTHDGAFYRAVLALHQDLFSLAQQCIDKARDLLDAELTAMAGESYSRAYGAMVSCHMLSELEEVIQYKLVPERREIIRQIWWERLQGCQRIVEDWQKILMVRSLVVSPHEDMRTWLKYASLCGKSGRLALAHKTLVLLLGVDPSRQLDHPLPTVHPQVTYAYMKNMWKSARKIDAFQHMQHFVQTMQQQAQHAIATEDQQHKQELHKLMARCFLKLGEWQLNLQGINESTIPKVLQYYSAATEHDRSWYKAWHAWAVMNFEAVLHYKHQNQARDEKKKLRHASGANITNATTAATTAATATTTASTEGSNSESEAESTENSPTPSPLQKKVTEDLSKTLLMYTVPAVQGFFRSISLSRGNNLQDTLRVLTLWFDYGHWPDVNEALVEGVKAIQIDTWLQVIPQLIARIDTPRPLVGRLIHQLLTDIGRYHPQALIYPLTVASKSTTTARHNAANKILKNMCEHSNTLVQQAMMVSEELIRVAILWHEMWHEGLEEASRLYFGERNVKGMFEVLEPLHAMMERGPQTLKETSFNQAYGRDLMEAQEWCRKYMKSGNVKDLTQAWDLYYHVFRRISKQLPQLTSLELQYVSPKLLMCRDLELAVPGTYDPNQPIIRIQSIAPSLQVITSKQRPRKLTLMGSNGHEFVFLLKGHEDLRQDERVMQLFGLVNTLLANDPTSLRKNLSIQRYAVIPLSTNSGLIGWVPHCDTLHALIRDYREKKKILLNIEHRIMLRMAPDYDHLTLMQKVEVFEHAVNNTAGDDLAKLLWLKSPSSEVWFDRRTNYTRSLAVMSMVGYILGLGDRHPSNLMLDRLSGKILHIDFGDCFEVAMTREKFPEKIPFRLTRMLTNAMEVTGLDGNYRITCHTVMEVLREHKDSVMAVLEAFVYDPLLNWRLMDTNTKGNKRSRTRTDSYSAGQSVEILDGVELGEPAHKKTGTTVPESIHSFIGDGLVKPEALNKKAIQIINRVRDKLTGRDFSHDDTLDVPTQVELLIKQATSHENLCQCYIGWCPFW
Experiment: mTORC1 enzyme activity inhibition (phosphorylation of 5-FAM substrate peptide STTPGGTLFSTTPG), capillary electrophoresis with laser-induced fluorescence
Settings: mTORC1 31.1 nM, substrate peptide 2 μM, 20 min; nonlinear fit Origin 8.0
measure-name: IC50

[[record]]
smiles_repr = "O=c1c(O)c(-c2ccc(O)c(O)c2)oc2cc(O)cc(O)c12"
measure_name = "IC50"
result = "377 nM"

